# Test system: T1, human CD4 on cells (SKW3 cells; human PBMCs) (human, UniProt P01730 26-458)
# T1 construct: whole, on cells; The SKW3 CD4 knockout cells served as the negative cell line; also called hCD4
# Method notes: FACS binning on SKW3 cells after supernatant; competitor OKT4-A488; background 2163, max binding 8200
Property measured: OKT4 A488 signal (FACS binning)
Reply with the value as a number alone.

Supply OKT4 A488 signal (FACS binning) value. Item: 75110_08H11A (antibody, V domains shown, Tested as non-clonal hybridoma supernatant from AlivaMab Mouse Kappa mice, detected with anti-mouse Fc and anti-human Kappa) VH: EVQLVESGGGLVQPGGSLRLSCAASGFTFSSYDMHWVRQATGKGLEWVSTIGTAGDTYYPGSVKGRFTISRENAKNSLYLQMNSLRAGDTAVYYCARGGYSYYGMDVWGQGTTVTVSS VL: EIVLTQSPGTLSLSPGERATLSCGASQSVSSTYLAWYQQKPGQAPRLLIYGASSRATGIPDRFSGSGSGTDFTLTISRLEPEDFAVYYCQQFGSSPFTFGPGTKVDIK
9770
